Data provenance is PubChem BioAssay.

# growth inhibition annotations
experiment: Restrictive medium S. cerevisiae growth inhibition, OD615, pilot screen of yeast lifespan reduction project, restrictive growth control (AID 706); conditions: OD615, 48 h, at 10 µM, active compounds read high;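 further: modified DeaD lifespan yeast strain shifted to restrictive glucose medium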
Could you give me the number in %? Just the number is fine.

INSERT INTO results (compound, result) VALUES
  ('Cc1onc(-c2ccccc2Cl)c1C(=O)Nc1nnc(-c2ccc(F)cc2)s1', -1.93);

Which growth inhibition is listed for `CCc1ccc(C(=O)NCc2cccs2)s1` ? 4.03

Which growth inhibition is listed for Cc1ccc2c(c1)C1(C(=O)N2C)N2CC3(C)CN1CC(C)(C2)C3=O (stereo not drawn) ? 0.76

----------
# RAM network inhibition annotations
experiment: RAM signaling pathway blockade in yeast – S. cerevisiae, Pdr1DBD-CYC8 efflux-inhibited sensitized strain, primary screen (AID 1298);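 further: 0% = DMSO untreated cells without growth and 100% = 10 µM 1-NA-PP1 full growth; higher means more yeast growth rescued from 5-FOA killing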; details: S. cerevisiae cbk1-as DSE1-URA3 strain, 5-FOA growth OD615, 2 d; at 50 µM; active compounds read high
Could you give me the number in %? Just the number is fine.

Consider the reported RAM network inhibition for these compounds:
INSERT INTO measurements (compound, unit_text, result) VALUES
  ('CCOC(=O)CN1c2ccccc2NC(=O)CC1C (stereo unspecified)', '%', -0.43),
  ('CCOC(=O)c1c(C2CCN(C(=O)OCC)CC2)nc2ccccn12', '%', 2.43),
  ('Cc1cc(C(=O)N2CCN(Cc3ccc4c(c3)OCO4)CC2)on1', '%', 2.8);

Which RAM network inhibition is listed for `O=C(CSc1nnc(-c2ccccc2Cl)o1)N1CCCCC1` ? 0.36

Which RAM network inhibition is listed for CC1Cc2ccccc2N1C(=O)CSC1=NCCS1 (stereo unspecified) ? 6.64

Which RAM network inhibition is listed for `O=C(NC12CC3CC(CC(C3)C1)C2)c1cccnc1` ? 3.7

Which RAM network inhibition is listed for `CCN(CCCNC(=O)CN1C(=O)COc2ccccc21)c1ccccc1` ? 3.49

Which RAM network inhibition is listed for `Cc1cccc(N=C(N2CCOCC2)P(=O)(N2CCOCC2)N2CCOCC2)c1` ? 5.26

Which RAM network inhibition is listed for `COc1cc(N)ccc1Cc1ccc(N)cc1OC` ? 6.85

Which RAM network inhibition is listed for `O=C(NCCc1ccccc1)c1ccc(Br)o1` ? 1.44

Which RAM network inhibition is listed for `CC(C)Nc1ncnc2c1cnn2-c1ccc(Cl)cc1` ? -0.94

Which RAM network inhibition is listed for `CN(CC(=O)N1CCc2ccccc21)S(=O)(=O)c1cccc2cccnc12` ? 8.8

Which RAM network inhibition is listed for `O=C(CN1CCOCC1)Nc1cc(Cl)ccc1Cl` ? 1.66

Which RAM network inhibition is listed for `COc1ccccc1N1CCN(C(=O)c2ccc(Br)s2)CC1` ? 6.83

Which RAM network inhibition is listed for COc1ccc(-c2nc(CS(=O)CC(=O)NCCC3=CCCCC3)c(C)o2)cc1 (stereo unspecified) ? 3.02

----------
experiment: RAM signaling pathway blockade in yeast – S. cerevisiae, Pdr1DBD-CYC8 efflux-inhibited sensitized strain, primary screen (AID 1298);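 further: 0% = DMSO untreated cells without growth and 100% = 10 µM 1-NA-PP1 full growth; higher means more yeast growth rescued from 5-FOA killing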; conditions: S. cerevisiae cbk1-as DSE1-URA3 strain, 5-FOA growth OD615, 2 d; at 50 µM; active compounds read high
The source made the active and inactive calls.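 How the source made its calls: active means RAM network inhibition above 8.4% in each of two replicates, 3 SD over the compound average; inconclusive means above 8.4% inhibition in only one replicate; inactive means 8.4% inhibition or less in each replicate.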
# RAM network inhibition annotations

Consider the reported RAM network inhibition for these compounds:
INSERT INTO assay_data (compound, assay_metric, result) VALUES
  ('CC(=O)c1c(C)nn(C(=O)c2cccs2)c1C', 'RAM network inhibition', '-0.62% (inactive)'),
  ('CCCCN(C)C(=O)c1c[nH]c2ccc(S(=O)(=O)N3CCOCC3)cc2c1=O', 'RAM network inhibition', '5.01% (inactive)'),
  ('CCOC(=O)C1CCN(C(=O)CN(c2cccc(OC)c2)S(=O)(=O)c2ccccc2)CC1', 'RAM network inhibition', '1.79% (inactive)'),
  ('CCn1c(-c2cc(OC)ccc2OC)csc1=Nc1c(C)n(C)n(-c2ccccc2)c1=O', 'RAM network inhibition', '4.62% (inactive)'),
  ('CCOC(=O)N1CCC(NC(=O)c2ccc(CS(=O)(=O)c3ccccc3C)o2)CC1', 'RAM network inhibition', '7.2% (inactive)');

Which RAM network inhibition is listed for Cc1ccc2oc3c(c(=O)c2c1)C(c1ccc(F)cc1)N(CCCN1CCOCC1)C3=O (stereo not drawn) ? 0.29% (inactive)

Which RAM network inhibition is listed for `CC1(C)CC(=O)C2=C(C1)OC(N)=C(C#N)C21CCN(Cc2ccccc2)CC1` ? 5.53% (inactive)

Which RAM network inhibition is listed for `O=C(CCCn1c(=O)oc2ccccc21)N1CCc2ccccc2C1` ? 4.82% (inactive)

Which RAM network inhibition is listed for `CCOC(=O)C1=C(O)/C(=C/N(C)C)N=C1C` ? 0.56% (inactive)

Which RAM network inhibition is listed for `CC(=O)Oc1c(Cl)c(N2CCOCC2)c(OC(C)=O)c2ccccc12` ? 2.47% (inactive)

Which RAM network inhibition is listed for `COc1cccc(OCC(=O)N(Cc2nc(-c3ccc(Cl)cc3)no2)C(C)C)c1` ? 3.59% (inactive)

Which RAM network inhibition is listed for CCN(CC)CCCN1C(=O)C(O)=C(C(=O)c2ccc(C)o2)C1c1cccs1 (stereo not drawn) ? 2.8% (inactive)

Which RAM network inhibition is listed for `O=c1cnn(-c2ccccc2)c(-c2ccccc2)c1` ? 1.25% (inactive)

Which RAM network inhibition is listed for `COC(=O)c1ccc(NC(=O)c2cccc(OC)c2)cc1` ? 8.05% (inactive)

Which RAM network inhibition is listed for `CC(C)(C)NCCCCOc1ccc(F)cc1` ? 1.66% (inactive)

Which RAM network inhibition is listed for `O=C(c1cc(-c2ccccc2O)on1)N1CCCC1` ? 6.42% (inactive)

Which RAM network inhibition is listed for `COCCCNC(=O)Cn1cc2c(n1)CCCCC2` ? 4.53% (inactive)

----------
assay: inhibitors of the yeast RAM network, pilot screen, dse1pr::URA3 reporter, 5-FOA selection (AID 869);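 further: 0% = DMSO wells with no growth and 100% = 10 µM 1-NA-PP1 with full growth; RAM network block rescues cells from 5-FOA so hits raise OD615 growth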; conditions: S. cerevisiae dse1pr::URA3 5-FOA growth, OD615, 2 d; at 10 µM; active compounds read high; strain carries analog-sensitive mutant Cbk1 kinase
ASSAY METRIC: inhibition (%)
Could you give me the number in %? Just the number is fine.

Consider the reported inhibition for these compounds:
INSERT INTO assay_data (compound, unit_text, result) VALUES
  ('Cn1ccnc1SCc1cn2cc(Br)ccc2n1', '%', 1.51),
  ('CCCCN(C)CCNC(=O)Cn1c(=O)sc2ccccc21', '%', 1.31),
  ('c1ccc(-c2nnc(-c3ccccn3)nn2)nc1', '%', -0.025),
  ('Cc1csc2nc(CNC(=O)CCC(=O)O)cn12', '%', 1.4),
  ('O=c1[nH]c(NC2CCCCC2)nnc1Cc1ccccc1', '%', 2.53),
  ('CCOC(=O)c1[nH]c2c(c1C)C(=O)CC(c1ccc(N(C)C)cc1)C2 (configuration not stated)', '%', 2.3),
  ('Cc1ccccc1NC(=O)CN1C(=O)COc2ccc(Cl)cc21', '%', 0.995),
  ('COc1ccc(OC)c(CNC(=O)Cc2c(C(=O)O)[nH]c3ccccc23)c1', '%', -0.185);

Which inhibition is listed for `CCOC(=O)Cc1csc(NC(=O)COc2ccc(OC)cc2)n1` ? 1.89

Which inhibition is listed for `COc1ccccc1NC(=O)CCNC(=O)Cn1ccc2ccccc2c1=O` ? 0.74

Which inhibition is listed for `Cn1nnnc1P(=O)(c1ccccc1)c1ccccc1` ? 0.995

Which inhibition is listed for `Nc1ccc(C(=O)c2ccc3c(c2)OCCO3)cc1N` ? 0.375

Which inhibition is listed for `CCNC(=O)CN(c1ccc(CC)cc1)S(C)(=O)=O` ? 0.76

----------
# viability increase annotations
assay: viability gain of MRP-1-high H69AR cells under doxorubicin, pilot screen, MRP-1 activator project, CellTiter-Glo, duplicate (AID 807); conditions: H69AR viability with doxorubicin, CellTiter-Glo luminescence; at 10 µM; active compounds read high;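 further: compound pretreatment 18-22 h then 72 h combined with doxorubicin; 0% = doxorubicin alone and 100% = vehicle without doxorubicin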
Could you give me the number in %? Just the number is fine.

INSERT INTO results (molecule, assay_metric, unit_text, result) VALUES
  ('CCn1c(=NC(=O)CN2C(=O)CCC2=O)sc2c(C)cc(C)cc21', 'viability increase', '%', -4.23),
  ('O=C(CSc1nnc(Cn2c(=O)sc3ccccc32)n1-c1ccccc1)N1CCCCCC1', 'viability increase', '%', -2.95),
  ('Cc1ccc(-n2nc(C)c3c(C)c(CCC(=O)NCc4ccco4)c(C)nc32)cc1', 'viability increase', '%', -3.52),
  ('Cc1ccc(-n2ncc3c(NCCCn4ccnc4)ncnc32)c(C)c1', 'viability increase', '%', -0.58),
  ('CN(Cc1ccccc1)c1nc2c(c(=O)n(C)c(=O)n2C)n1CCSc1ncccn1', 'viability increase', '%', -2.71),
  ('Cc1ccc(-n2c(=O)[nH]cc(C(=O)Nc3ccc4c(c3)OCO4)c2=O)cc1C', 'viability increase', '%', 0.27),
  ('C=C(C)CSc1nc2c(c(=O)[nH]c(=O)n2C)n1Cc1ccccc1', 'viability increase', '%', 3.2),
  ('O=S(=O)(c1ccccc1)N1CCN(C2CCN(Cc3ccccc3)CC2)CC1', 'viability increase', '%', -1.86),
  ('Cc1c(Nc2nc3ccccc3nc2N2CCN(c3ccccc3)CC2)c(=O)n(-c2ccccc2)n1C', 'viability increase', '%', -4.8),
  ('CC(=O)CCc1c(C)c2cccc(C)c2[nH]c1=O', 'viability increase', '%', -3.1);

Which viability increase is listed for `COc1ccc(C(=O)N2CCN(S(=O)(=O)c3ccc(C)cc3C)CC2)cc1OC` ? 0.12

Which viability increase is listed for Cc1ccc(N(CC(N)=O)C2SC(=O)N(C)C2=O)cc1 (stereo unspecified) ? -2.96

Which viability increase is listed for COCCn1c(CN2CC(C)CC(C)C2)nc2c1c(=O)n(C)c(=O)n2C (stereo unspecified) ? 0.07

Which viability increase is listed for Cc1nn(-c2ccccc2)c2c1C(c1ccccc1)C(C#N)=C(N)O2 (stereo unspecified) ? -2.62

Which viability increase is listed for CCOc1ccccc1C1CC(c2ccc(Cl)cc2)Nc2nc(N)nn21 (stereo unspecified) ? 1.4

Which viability increase is listed for `O=C(CNC(=O)c1cnccn1)Nc1ccc(F)c(F)c1F` ? 1.31

Which viability increase is listed for `COc1ccc(OC)c2c1sc(=NC(=O)C(C)(C)C)n2C` ? -6.23

Which viability increase is listed for `COc1ccc(-c2nc(CSCC(=O)N3CCN(C4CCCCC4)CC3)c(C)o2)cc1OC` ? -1.54

Which viability increase is listed for COC(=O)C1Sc2[nH]c(=O)sc2C(c2ccc(Cl)cc2)C1C(=O)OC (stereo unspecified) ? -5.67

Which viability increase is listed for `CC(C)c1cc(C(=O)Nc2ccc3c(c2)OCO3)no1` ? -4.63

Which viability increase is listed for `CC(C)(C)NC(=O)Cn1c(=O)oc2cc(S(=O)(=O)N3CCc4ccccc43)ccc21` ? -3.16
